This collection of values is drawn from patent US11046889B2.

test: Solubility check of 20 wt % solutions in organic solvents; assay type: physicochemical; set-up: key: A: the compound dissolves at room temperature; B: the compound does not dissolve at room temperature but dissolves when heated to 60° C.; the compound does not dissolve even when heated to 60° C; details: 20 wt % solution in toluene; room temperature or heated to 60° C.
TEST_READOUT: Results of Solubility Toluene

Check out these entries, answers already filled in.
[
  {
    "COMPOUND": "C=CC(=O)OCCCCCCOc1ccc(OC(=O)C2CCC(C(=O)Oc3ccc(C4CCC(CCC)CC4)cc3/C=N/N(CCOCCOC)c3nc4ccccc4s3)CC2)cc1 (centres unmarked)",
    "Results of Solubility Toluene": "A"
  },
  {
    "COMPOUND": "C=CC(=O)OCCOCCOCCOc1ccc(OC(=O)C2CCC(C(=O)Oc3ccc(OC(=O)C4CCC(C(=O)Oc5ccc(OCCOCCOCCOC(=O)C=C)cc5)CC4)c4sc(-c5ccc([N+](=O)[O-])cc5)nc34)CC2)cc1 (centres unmarked)",
    "Results of Solubility Toluene": "B"
  },
  {
    "COMPOUND": "C=CC(=O)OCCCCCCOc1ccc(OC(=O)C2CCC(COc3ccc(C4CCC(CCC)CC4)cc3/C=N/N(CCOCCOC)c3nc4ccccc4s3)CC2)cc1 (centres unmarked)",
    "Results of Solubility Toluene": "A"
  },
  {
    "COMPOUND": "C=CC(=O)OCCCCCCOc1ccc(OC(=O)C2CCC(C(=O)Oc3ccc(C4CCC(C5CCC(CCC)CC5)CC4)cc3/C=N/N(CCOCCOC)c3nc4ccccc4s3)CC2)cc1 (centres unmarked)",
    "Results of Solubility Toluene": "B"
  },
  {
    "COMPOUND": "C=CC(=O)OCCCCCCOc1ccc(OC(=O)C2CCC(COc3ccc(OCC4CCC(C(=O)Oc5ccc(OCCCCCCOC(=O)C=C)cc5)CC4)c(/C=N/N(CCOCCOCCOC(=O)C=C)c4nc5ccccc5s4)c3)CC2)cc1 (centres unmarked)",
    "Results of Solubility Toluene": "A"
  },
  {
    "COMPOUND": "C=CC(=O)OCCCCCCOc1ccc(OC(=O)C2CCC(COc3ccc(OCC4CCC(C(=O)Oc5ccc(OCCCCCCOC(=O)C=C)cc5)CC4)c(/C=N/N(CCOCCOC)c4nc5ccccc5s4)c3)CC2)cc1 (centres unmarked)",
    "Results of Solubility Toluene": "B"
  },
  {
    "COMPOUND": "C=CC(=O)OCCCOC(=O)C1CCC(C(=O)OC2CCC(C(=O)Oc3ccc(OC(=O)C4CCC(OC(=O)C5CCC(C(=O)OCCCOC(=O)C=C)CC5)CC4)c4c3SC(=C3C(=O)N(c5ccccc5)N=C3C(=O)OCC)S4)CC2)CC1 (centres unmarked) [Compound R-3, reference compound]",
    "Results of Solubility Toluene": "B"
  },
  {
    "COMPOUND": "C=CC(=O)OCCOCCOCCOc1ccc(OC(=O)C2CCC(C(=O)Oc3ccc(C4CCC(CCC)CC4)cc3/C=N/N(CCCCCC)c3nc4ccccc4s3)CC2)cc1 (centres unmarked)",
    "Results of Solubility Toluene": "B"
  }
]

Entry C=CC(=O)OCCCCCCOc1ccc(OC(=O)C2CCC(C(=O)Oc3ccc(OC(=O)C4CCC(C(=O)Oc5ccc(OCCCCCCOC(=O)C=C)cc5)CC4)c(/C=N/N(COCCOC)c4nc5ccccc5s4)c3)CC2)cc1 (centres unmarked) [Compound R-1, reference compound] has what Results of Solubility Toluene?
B

###

experiment: Solubility check of 20 wt % solutions in organic solvents; format: physicochemical; set-up: key: A: the compound dissolves at room temperature; B: the compound does not dissolve at room temperature but dissolves when heated to 60° C.; the compound does not dissolve even when heated to 60° C; conditions: 20 wt % solution in methyl ethyl ketone (MEK); room temperature or heated to 60° C.
TEST_READOUT: Results of Solubility MEK

[
  {
    "MOLECULE": "C=C(C)C(=O)OCCCCCCOc1ccc(OC(=O)C2CCC(COc3ccc(OCC4CCC(C(=O)Oc5ccc(OCCCCCCOC(=O)C(=C)C)cc5)CC4)c(/C=N/N(CCOCCOC)c4nc5ccccc5s4)c3)CC2)cc1 (stereo not drawn)",
    "Results of Solubility MEK": "B"
  },
  {
    "MOLECULE": "C=CC(=O)OCCCCCCOc1ccc(OC(=O)C2CCC(C(=O)Oc3ccc(OC(=O)C4CCC(C(=O)Oc5ccc(OCCCCCCOC(=O)C=C)cc5)CC4)c4sc(-c5ccc([N+](=O)[O-])cc5)nc34)CC2)cc1 (stereo not drawn) [Compound R-2, reference compound]",
    "Results of Solubility MEK": "C"
  },
  {
    "MOLECULE": "C=CC(=O)OCCOCCOCCOc1ccc(C(=O)Oc2ccc(-c3ccc(CCC)cc3)cc2/C=N/Nc2nc3ccccc3s2)cc1",
    "Results of Solubility MEK": "A"
  },
  {
    "MOLECULE": "C=CC(=O)OCCOCCOCCOc1ccc(OC(=O)C2CCC(C(=O)Oc3ccc(OC(=O)C4CCC(C(=O)Oc5ccc(OCCOCCOCCOC(=O)C=C)cc5)CC4)c4sc(-c5ccc([N+](=O)[O-])cc5)nc34)CC2)cc1 (stereo not drawn)",
    "Results of Solubility MEK": "B"
  },
  {
    "MOLECULE": "C=CC(=O)OCCCCCCOc1ccc(OC(=O)C2CCC(C(=O)Oc3ccc(C4CCC(CCC)CC4)cc3/C=N/N(CCOCCOC)c3nc4ccccc4s3)CC2)cc1 (stereo not drawn)",
    "Results of Solubility MEK": "A"
  }
]

What value of Results of Solubility MEK has been reported for the following molecule? C=CC(=O)OCCCCCCOc1ccc(OC(=O)C2CCC(COc3ccc(-c4ccc(CCC)cc4)c(/C=N/N(CCOCCOC)c4nc5ccccc5s4)c3)CC2)cc1 (stereo not drawn)
B

###

test: Solubility check of 20 wt % solutions in organic solvents; type: physicochemical; design: key: A: the compound dissolves at room temperature; B: the compound does not dissolve at room temperature but dissolves when heated to 60° C.; the compound does not dissolve even when heated to 60° C; conditions: 20 wt % solution in chloroform; room temperature or heated to 60° C.
TEST_READOUT: Results of Solubility Chloroform

[
  {
    "MOLECULE": "C=CC(=O)OCCOCCOc1ccc(OC(=O)C2CCC(C(=O)Oc3ccc(OC(=O)C4CCC(C(=O)Oc5ccc(OCCOCCOC(=O)C=C)cc5)CC4)c4sc(-c5cc6c(C)cc(C)cc6o5)nc34)CC2)cc1 (centres unmarked)",
    "TEST_READOUT": "Results of Solubility Chloroform",
    "VALUE": "A"
  },
  {
    "MOLECULE": "C=CC(=O)OCCCOC(=O)C1CCC(C(=O)OC2CCC(C(=O)Oc3ccc(OC(=O)C4CCC(OC(=O)C5CCC(C(=O)OCCCOC(=O)C=C)CC5)CC4)c4c3SC(=C3C(=O)N(c5ccccc5)N=C3C(=O)OCC)S4)CC2)CC1 (centres unmarked) [Compound R-3, reference compound]",
    "TEST_READOUT": "Results of Solubility Chloroform",
    "VALUE": "A"
  }
]

###

assay: Solubility check of 20 wt % solutions in organic solvents; assay type: physicochemical; design: key: A: the compound dissolves at room temperature; B: the compound does not dissolve at room temperature but dissolves when heated to 60° C.; the compound does not dissolve even when heated to 60° C; details: 20 wt % solution in methyl isobutyl ketone (MIBK); room temperature or heated to 60° C.
TEST_READOUT: Results of Solubility MIBK

[
  {
    "MOLECULE": "C=CC(=O)OCCCCCCOc1ccc(OC(=O)C2CCC(COc3ccc(C4CCC(CCC)CC4)cc3/C=N/N(CCOCCOC)c3nc4ccccc4s3)CC2)cc1 (stereo not shown) [Compound I-10]",
    "TEST_READOUT": "Results of Solubility MIBK",
    "VALUE": "B"
  },
  {
    "MOLECULE": "C=CC(=O)OCCCCCCOc1ccc(OC(=O)C2CCC(COc3ccc(OCC4CCC(C(=O)Oc5ccc(OCCCCCCOC(=O)C=C)cc5)CC4)c(/C=N/N(CCOCCOC)c4nc5ccccc5s4)c3)CC2)cc1 (stereo not shown) [Compound I-6]",
    "TEST_READOUT": "Results of Solubility MIBK",
    "VALUE": "B"
  },
  {
    "MOLECULE": "C=C(C)C(=O)OCCCCCCOc1ccc(OC(=O)C2CCC(COc3ccc(OCC4CCC(C(=O)Oc5ccc(OCCCCCCOC(=O)C(=C)C)cc5)CC4)c(/C=N/N(CCOCCOC)c4nc5ccccc5s4)c3)CC2)cc1 (stereo not shown) [Compound I-16]",
    "TEST_READOUT": "Results of Solubility MIBK",
    "VALUE": "B"
  },
  {
    "MOLECULE": "C=CC(=O)OCCOCCOCCOc1ccc(OC(=O)C2CCC(C(=O)Oc3ccc(OC(=O)C4CCC(C(=O)Oc5ccc(OCCOCCOCCOC(=O)C=C)cc5)CC4)c4sc(-c5ccc([N+](=O)[O-])cc5)nc34)CC2)cc1 (stereo not shown) [Compound I-12]",
    "TEST_READOUT": "Results of Solubility MIBK",
    "VALUE": "C"
  }
]

Reported Results of Solubility MIBK for C=CC(=O)OCCCCOC(=O)C1CCC(C(=O)OC2CCC(C(=O)Oc3ccc(OC(=O)C4CCC(OC(=O)C5CCC(C(=O)OCCCCOC(=O)C=C)CC5)CC4)c4c3SC(=C(C#N)C(=O)OCCOCCOC(=O)C=C)S4)CC2)CC1 (stereo not shown) [Compound I-15] : what is it?
C

Data request, read-out Results of Solubility MIBK, for C=CC(=O)OCCCCCCOc1ccc(OC(=O)C2CCC(COc3ccc(OCC4CCC(C(=O)Oc5ccc(OCCCCCCOC(=O)C=C)cc5)CC4)c(/C=N/N(CCOCCOCCOC(=O)C=C)c4nc5ccccc5s4)c3)CC2)cc1 (stereo not shown) [Compound I-9]
B

Which Results of Solubility MIBK reading was recorded for the molecule C=CC(=O)OCCCCCCOc1ccc(OC(=O)C2CCC(COc3ccc(-c4ccc(CCC)cc4)c(/C=N/N(CCOCCOC)c4nc5ccccc5s4)c3)CC2)cc1 (stereo not shown) [Compound I-11] ?
B

Given C=CC(=O)OCCOCCOCCOc1ccc(OC(=O)C2CCC(COc3ccc(OCC4CCC(C(=O)Oc5ccc(OCCOCCOCCOC(=O)C=C)cc5)CC4)c(/C=N/N(CCCCCC)c4nc5ccccc5s4)c3)CC2)cc1 (stereo not shown) [Compound I-5] , state its recorded Results of Solubility MIBK.
B

I am curious: what Results of Solubility MIBK value has been reported for C=CC(=O)OCCCOC(=O)C1CCC(C(=O)OC2CCC(C(=O)Oc3ccc(OC(=O)C4CCC(OC(=O)C5CCC(C(=O)OCCCOC(=O)C=C)CC5)CC4)c4c3SC(=C3C(=O)N(c5ccccc5)N=C3C(=O)OCC)S4)CC2)CC1 (stereo not shown) [Compound R-3, reference compound] ?
C

Return reported Results of Solubility MIBK; argument: C=CC(=O)OCCCCCCOc1ccc(OC(=O)C2CCC(C(=O)Oc3ccc(OC(=O)C4CCC(C(=O)Oc5ccc(OCCCCCCOC(=O)C=C)cc5)CC4)c4sc(-c5ccc([N+](=O)[O-])cc5)nc34)CC2)cc1 (stereo not shown) [Compound R-2, reference compound]
C
